system: MS2 coat protein; test: apparent KD of MS2 coat protein, switch ON state; designed switch direction (-1 OFF switch, 1 ON switch): -1; higher = weaker reporter binding; conditions: FMN input: 0 or 200 uM; Eterna round: R93 (includes R88 designs)
RESULT_TYPE: apparent KD of MS2 coat protein (nM)
Hi! Could you send only the number? It should be in nM, unit omitted.

Before answering, review these 4 worked examples.
AAAAUACAUGAGGAUCACCCAUGUGAGGAUAUGAGAAAGGGAAUAAAAUAACCCAAACUCAGAAGGCACAAAAA [Ex 1 May 26] = 35.9
AAGCACAGAGGAUAUACAUGGGUAAAAAAAAAAAAAAAAAAACAUGAGGAUCACCCAUGUAGAAGGCUGUGCAA = 32.6
AAGAGUAGAGGAUAUACGGGAAAAGAGUCGAAAGACUCAAAACAUGAGGAUCACCCAUGUAGAAGGCUACUCAA [Hyphema Seclusion Mod 62% 6] = 87.7
AUUAUGUAAGGAUAUGAGUGAACAACAAAACAAAUAACGACUCAGAAGGUACAUGAGGAUCACCCAUGUAUAAA [May 70] = 28.9

query: Look up apparent KD of MS2 coat protein: AAGGGACAUGAGGAUCACCCAUGUGAGGAUAUGAUGCGAAUAAAGAAAGAAGAAAGCAUCAGAAGGCACACCAA [58%, Disencluded 3, 7]
result: 67.8

query: Look up apparent KD of MS2 coat protein: AAUGAUUUAGGAUAUACAUGAGGAUCACCCAUGUUCAAAUCGUGGGUCAGGUGAGAAGGUAGAAGGAAAUCACU [Soberior]
result: 113

query: Look up apparent KD of MS2 coat protein: AGGAAACAUGAGGAUCACCCAUGUCAGGAUAUAGAAAAGAAAAGAAAAGAAAGAAGAACUAGAAGGGACAAGAA [Scorpion I]
result: 27.7

query: Look up apparent KD of MS2 coat protein: AAAAGGUCAGGAUAUGCCCACCAGGAAAAAAAACCAGGUGGGCAGAAGGGACAUGAGGAUCACCCAUGUAAAAA [Excls4-I]
result: 59.6

query: Look up apparent KD of MS2 coat protein: AAAAAACAUGAGGAUCACCCAUGUGAGGAUAUGACGUAAAUAAAGAAAGAAGAAAUCGUCAGAAGGCACAAAAA [55%, Disencluded 2, 6]
result: 42.3

query: Look up apparent KD of MS2 coat protein: AAAACACAUGAGGAUCACCCAUGUGAGGAUAUGCGAAAAAAAAAAAAAAAAAAAAAACGCAGAAGGCACAUAAA [jn_teaneck]
result: 23.6

query: Look up apparent KD of MS2 coat protein: CUCUUGUGAGGAUAUGUAAGAAAAGAAAAGAAAGAAAAGAAACAGAAGGCACAUGAGGAUCACCCAUGUAAGAA [EteRNA is fun!]
result: 31.7

query: Look up apparent KD of MS2 coat protein: AAAAAUGGAGGAUAUACAUGAGGAUCACCCAUGUGAAACAAAACAAAACACAAAAAAAGUAGAAGGCCAAAAAA [Gilly Gone Silly 4 - Jieux - Exclusion 3]
result: 33.1

query: Look up apparent KD of MS2 coat protein: AAAUGACAUGAGGAUCACCCAUGUCAGGAUAUGACUUGAAAAAUAAAAUAAAAACAUGUCAGAAGGGACAUGGA [Design 51: Sub-opt GB]
result: 23.9

query: Look up apparent KD of MS2 coat protein: AAGAAGAGAGGAUAUACAUGAGGAUCACCCAUGUAAAAGAAAGAAAAGGGAAAGAAAAGUAGAAGGCUCAAGAA [Aakheperrure Amenhotep II]
result: 26.4

query: Look up apparent KD of MS2 coat protein: AACAGUACAGGAUAUACAUGAGGAUCACCCAUGUGAGAAUAAAGUGGCGUACCACAAAGUAGAAGGGUACUGGA [Mat - Exclusion 3 - JL mod - D20]
result: 26.7

query: Look up apparent KD of MS2 coat protein: AGCUAGUCAGGAUAUACGGACAUGUCAGGAGACGUGAAGGGACAUGAGGAUCACCCAUGUAGAAGGGACUAGCG [74%, Web mod - With 4 more G's]
result: 35.5

query: Look up apparent KD of MS2 coat protein: AAAGGAUCAGGAUAUGCGUGGAAAAAGUGUAUUCAAAAAAAACAUGAGGAUCACCCAUGUAGAAGGGAUCCAAA [Normal (20/19)]
result: 140

query: Look up apparent KD of MS2 coat protein: AAGCUGCUAGGAUAUACAGCAGGGAUUCGAAAACCCACGAAACAUGAGGAUCACCCAUGUAGAAGGAGUAGGGA [Attixe]
result: 22.9

query: Look up apparent KD of MS2 coat protein: AUAAUGAGAGGAUAUACAUGAGGAUCACCCAUGUAAUUAACACGGCGAGCACCAAUACGUAGAAGGCUCAUUUA [JR_Exc003+Sub602]
result: 22.4

query: Look up apparent KD of MS2 coat protein: AGCUAGCGAGGAUAUACGAACAUGUCAAAAGACGUGAAGGGACAUGAGGAUCACCCAUGUAGAAGGUGCUAGCA [JL 74% mod 7]
result: 31.8

query: Look up apparent KD of MS2 coat protein: AGAAUACAUGAGGAUCACCCAUGUGAGGAUAUCAGAAGAAAAAGAAAAGAAAAGAAACUGAGAAGGCACAAAAG [EX 1 May 15]
result: 35.7

* * *

tested on: MS2 coat protein; assay: apparent KD of MS2 coat protein; designed switch direction (-1 OFF switch, 1 ON switch): -1; higher = weaker reporter binding; settings: input ligand: FMN 200 uM
RESULT_TYPE: apparent KD of MS2 coat protein
# do not omit the unit; it follows the number

GUACUACAUGAGGAUCACCCAUGUCAGGAUAUGCGAAUUUCAUCAAAAGAUGAAAUUUGCAGAAGGGACAGUAC [Omei Ex1 A1] (Eterna round: R97, puzzle: Exclusion 1) = 35.3 nM
AUAAGGCUAGGAUAUGCAUGUGGCACAGCUCAGAAAAUAAGACAUGAGGAUCACCCAUGUAGAAGGAGCAUGCC [EX2 A.30] (Eterna round: R97, puzzle: Exclusion 2) = 19.4 nM
UGAGUGCUGCGAGGAUAUACAUGAGGAUCACCCAUGUAAUCGUGUGAGGCAAAGCCUCACACGAUGUAGAAGGCGCAGUACUCU [Mat - Exclusion NG 2 - Mod of JL - D23] (Eterna round: R96, puzzle: Exclusion NG 2) = 12.8 nM
CAUUUGUAAGGAUAUGCACCGAUCUCCGAAAGGAGAUCGGUGCAGAAGGUACAUGAGGAUCACCCAUGUUGAUG [Mod of Brourd 11 - Jieux - Exclusion 4] (Eterna round: R97, puzzle: Exclusion 4) = 218 nM
CCCUCACAUGAGGAUCACCCAUGUUAGGAUAUGGGAGGUACCUGCGUGAGCGCACCACCCAGAAGGGACCAGGC [Eternabot (L2) Solution 4] (Eterna round: R97, puzzle: Exclusion 1) = 130 nM

query: Look up apparent KD of MS2 coat protein: UUUACAAGCUUAUGAUCCCACAUGAGGAUCACCCAUGUUGCUGCCGUGAGGUAGCUUUUAACAUAUGCUCGUCUUAU [JL TOV1 3.39] (Eterna round: R97, puzzle: Sensor, turn-off variant 1)
result: 764 nM

query: Look up apparent KD of MS2 coat protein: AAACACUGAGGAUAUGCAUAACAACAAAGCCUCACGUGCCAACAUGAGGAUCACCCAUGUAGAAGGCAGUCCAA [Mod R3 Insanara 16 - Jieux - Exclusion 2] (Eterna round: R97, puzzle: Exclusion 2)
result: 25 nM

query: Look up apparent KD of MS2 coat protein: AGAGUGGAGACAGGAUAUGAGAAUAGAUAGAAAUCAGAAGGGUCACAUGAGGAUCACCCAUGUAAAGUCUUGAGGAUGAGUGAU [Prohibition 1 - Jieux - Exclusion NG1] (Eterna round: R96, puzzle: Exclusion NG 1)
result: 156 nM

query: Look up apparent KD of MS2 coat protein: UUUGAAAAUGUAGGAUAUGGAAUAGGUAAGUAGCCAGAAGGACAUGAGGAUCACCCAUGUAAGAACAUAGGGAAAGAUAUGUUU [No clue what I'm doing] (Eterna round: R96, puzzle: Exclusion NG 1)
result: 90.8 nM

query: Look up apparent KD of MS2 coat protein: ACAUGAGGAUCACCCAUGUUAUGUUGGGUACUAAAUUAUUCGUAGGAUAUCGAAGCUAGUUUGUGCGAGAAGGACGCAUUUUUU [JR_ExcNG3_Sub058] (Eterna round: R96, puzzle: Exclusion NG 3)
result: 147 nM

query: Look up apparent KD of MS2 coat protein: UUAGGCUCUGGUUCGUAUUACAUGAGGAUCACCCAUGUGGCCAAGUGAGUUGGGCCGGUCAUGAUUUUGCUCGUUAU [Eternabot (L2) Solution 13] (Eterna round: R97, puzzle: Sensor, turn-off variant 1)
result: 48.3 nM

query: Look up apparent KD of MS2 coat protein: GGUGGUAUUGUUAGGAUAUGGCAUGCCCGAGGCGUCUAGAAGGGACAUGAGGAUCACCCAUGUCUAGAAUUAAU [Eternabot (L2) Solution 53] (Eterna round: R97, puzzle: Brourd's mod of Exclusion 4)
result: 41.2 nM

query: Look up apparent KD of MS2 coat protein: GACCAGGUAGGAUAUGCAGGGUCGGACUUGAGGAUCACCCAAGUGGCCAAAGUGCGUCCCGCAGAAGGGCCGAAAA [Isisusge] (Eterna round: R97, puzzle: Exclusion 5)
result: 215 nM

query: Look up apparent KD of MS2 coat protein: CGCUGGUGAGGAUAUGGGUGUUUUUACAUGAGGAUCACCCAUGUGGAGUAGCAUGUGGGUCCAGAAGGCGCGGGUG [-24.2, -22.5 kcal, 20% A] (Eterna round: R97, puzzle: Exclusion 5)
result: 682 nM
